Data origin: ChEMBL document CHEMBL1135304

Target: UniProt P07477
Sequence (P07477 whole entry): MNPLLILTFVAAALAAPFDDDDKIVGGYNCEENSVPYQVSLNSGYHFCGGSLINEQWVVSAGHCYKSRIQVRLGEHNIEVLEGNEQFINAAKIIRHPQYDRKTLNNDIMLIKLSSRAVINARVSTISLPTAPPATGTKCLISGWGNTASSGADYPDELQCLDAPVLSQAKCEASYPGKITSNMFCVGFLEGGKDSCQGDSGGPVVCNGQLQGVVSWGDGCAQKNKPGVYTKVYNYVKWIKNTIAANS
Examples of molecules with documented Ki follow.
Expressed in nM, but write only the number.

Observed Ki, UniProt P07477, "CCc1nc2ccc(OC3CCN(C(C)=N)CC3)cc2n1Cc1ccc(-c2ccc(C(=N)N)cc2)cc1" : 91

Recorded Ki for "CCc1nc2c(N(C)C)c(OC3CCN(C(C)=N)CC3)ccc2n1Cc1ccc2ccc(C(=N)N)cc2c1" on UniProt P07477 was 10

Measured Ki for this entry "CCc1nc2c(N)c(OC3CCN(C(C)=N)CC3)ccc2n1Cc1ccc2ccc(C(=N)N)cc2c1" on UniProt P07477: 24

The value of Ki recorded for "CCc1nc2cc(OC3CCN(C(C)=N)CC3)ccc2n1Cc1ccc(-c2cccc(C(=N)N)c2)cc1" when tested on UniProt P07477 reads 140

Next up:
Entry "CCc1nc2cc(OC3CCN(C(C)=N)CC3)ccc2n1Cc1cccc(-c2ccc(C(=N)N)cc2)c1" under UniProt P07477 had Ki of 690

---

Target: Prothrombin (Homo sapiens, UniProt P00734)
Lab note - cut at 2 µM for Ki: yes if strictly below, no if not.

Consider the worked cases shown below.
Could you please tell me whether Ki recorded for "CCc1nc2cc(OC3CCN(C(C)=N)CC3)ccc2n1Cc1cccc(-c2ccc(C(=N)N)cc2)c1" is less than 2 µM? no

Determine if "CCc1nc2cc(OC3CCN(C(C)=N)CC3)ccc2n1Cc1cccc(-c2cccc(C(=N)N)c2)c1" shows Ki strictly lower than 2 µM. yes

Answer whether the molecule "CCc1nc2c([N+](=O)[O-])c(OC3CCN(C(C)=N)CC3)ccc2n1Cc1ccc2ccc(C(=N)N)cc2c1" has Ki strictly less than 2 µM no

Problem: For the molecule "CCc1nc2ccc(OC3CCN(C(C)=N)CC3)cc2n1Cc1ccc(-c2ccc(C(=N)N)cc2)cc1" , is Ki under 2 µM? yes

More entries:
Lab note: Ki threshold 2 µM. Does this molecule come in strictly under it? "CCc1nc2c(NC(C)=O)c(OC3CCN(C(C)=N)CC3)ccc2n1Cc1ccc2ccc(C(=N)N)cc2c1" no

Record "CCc1nc2cc(OC3CCN(C(C)=N)CC3)ccc2n1Cc1ccc(-c2ccc(C(=N)N)cc2)cc1" : is its Ki strictly below 2 µM? yes

Determine whether this molecule shows Ki lower than 2 µM (ties excluded): "CCc1nc2c(N(CC(=O)O)CC(=O)O)c(OC3CCN(C(C)=N)CC3)ccc2n1Cc1ccc2ccc(C(=N)N)cc2c1" no

Consider the molecule "CCc1nc2ccc(OC3CCN(C(C)=N)CC3)cc2n1Cc1cccc(-c2cccc(C(=N)N)c2)c1" . Is its Ki strictly less than 2 µM? yes
